meta.source: the supplement of paper PMC13380429

Task for the reader: assign each of the following compounds its reported inhibition of SARS-CoV-2 cytopathic effect.
tested on: Vero E6 infected with SARS-CoV-2; experiment: inhibition of SARS-CoV-2 cytopathic effect; higher = more antiviral protection, active = above 15; conditions: 8.33 nM; 48 h
Numbers only here, please. The scale is %.

Prompt line: Look at this compound and give its reported inhibition of SARS-CoV-2 cytopathic effect. Cc1cc(=O)n(-c2ccccc2)[nH]1 [N-demethylantipyrine]
Response line: -3.23

Prompt line: Try this compound too: `N=C(N)NCCC[C@H](NC(=O)c1sccc1NS(=O)(=O)c1cccc2nsnc12)C(=O)O`
Response line: 0.96

Prompt line: Try this compound too: CC(NCCC(c1ccccc1)c1ccccc1)c1ccccc1 (configuration not stated)
Response line: 2.18

Prompt line: Try this compound too: `CC(C)[C@H]1[C@@H]2CC[C@@H](C2)[C@@H]1N`
Response line: 2.01

Prompt line: Try this compound too: `COc1ccc(C2C(=O)c3ccccc3C2=O)cc1`
Response line: 1.92

Prompt line: Try this compound too: `C[C@]12CC[C@H]3[C@@H](CCC4=CC(=O)CC[C@@H]43)[C@@H]1CC[C@@H]2O`
Response line: -1.9

Prompt line: Try this compound too: `CC(C)(O)CC(=O)NCCn1ccc2ncnc(Nc3ccc(Oc4cccc(C(F)(F)F)c4)c(Cl)c3)c21`
Response line: 7.81

Prompt line: Try this compound too: `Cc1nnc(NS(=O)(=O)c2ccc(N)cc2)s1`
Response line: 0.33

Prompt line: Try this compound too: `O=C(NO)c1ccc(O)c(O)c1`
Response line: 0.68

Prompt line: Try this compound too: OC(CNCC(O)C1CCc2cc(F)ccc2O1)C1CCc2cc(F)ccc2O1 (configuration not stated)
Response line: -2.57

Prompt line: Try this compound too: `O=C(O)c1ccccc1Nc1cccc(OCc2ccc3ccccc3n2)c1`
Response line: 2.38

Prompt line: Try this compound too: `Cc1ncc(Cl)cc1NCc1ccc(C(=O)N[C@@H](CC2CCCC2)C(=O)NC2CC2)s1`
Response line: 0.35

Prompt line: Try this compound too: CC(C)NC[C@@H](O)c1ccc(O)c(O)c1 (racemic)
Response line: -0.18

Prompt line: Try this compound too: `CN1C(=O)/C(=C2/C(=O)Nc3ccccc32)c2ccccc21`
Response line: -3.61

Prompt line: Try this compound too: `Nc1cc(F)ccc1NC(=O)/C=C/c1cnn(C/C=C/c2ccccc2)c1`
Response line: 1.78

Prompt line: Try this compound too: CC(=O)N(CC(O)CO)c1c(I)c(C(=O)NCCO)c(I)c(C(=O)NCC(O)CO)c1I (configuration not stated)
Response line: 0.19

Prompt line: Try this compound too: `Cc1cc(C)c(S(=O)(=O)n2cc(C)cc2C)c(C)c1`
Response line: -0.02

Prompt line: Try this compound too: `COC(=O)c1ccc2c(c1)nc(NC(=O)c1ccccc1)n2CCCc1ccccc1`
Response line: -1.27

Prompt line: Try this compound too: `CC[C@H](C)[C@H](N)C(=O)O`
Response line: -4.12

Prompt line: Try this compound too: `O=c1c(O)c(-c2ccc(O)c(O)c2)oc2cc(O)cc(O)c12`
Response line: 0.85

Prompt line: Try this compound too: CC[C@]12C=CCN3CC[C@@]4(c5cc([C@@]6(C(=O)OC)C[C@@H]7C[C@@H](C(C)(F)F)CN(Cc8c6[nH]c6ccccc86)C7)c(OC)cc5N(C)[C@H]4[C@@](O)(C(=O)OC)[C@@H]1OC(C)=O)[C@@H]32 [Vinflunine Ditartrate]
Response line: 3.35

Prompt line: Try this compound too: `Nc1ncnc2c1C(=O)N(c1ccc([C@H]3CC[C@H](CC(=O)O)CC3)cc1)CCO2`
Response line: 2.44

Prompt line: Try this compound too: CCOC(=O)[C@@](C)(N)Cc1ccc(O)c(O)c1 [methyldopate]
Response line: 1.54

Prompt line: Try this compound too: `Clc1cccc(SC2CCNCC2)n1`
Response line: -4.88

Prompt line: Try this compound too: `CCN(c1cc(-c2ccc(CN3CCOCC3)cc2)cc(C(=O)NCc2c(C)cc(C)[nH]c2=O)c1C)C1CCOCC1`
Response line: 0.49

Prompt line: Try this compound too: `Nc1nc(Nc2ccccc2)nc2c1ncn2[C@@H]1O[C@H](CO)[C@@H](O)[C@H]1O`
Response line: 4.07

Prompt line: Try this compound too: `CCn1c(-c2nonc2N)nc2cncc(CNC3CCNCC3)c21`
Response line: -1.43

Prompt line: Try this compound too: CC(C)C[C@H](NC(=O)[C@@H](COC(C)(C)C)NC(=O)[C@H](Cc1ccc(O)cc1)NC(=O)[C@H](CO)NC(=O)[C@H](Cc1c[nH]c2ccccc12)NC(=O)[C@H](Cc1cnc[nH]1)NC(=O)[C@@H]1CCC(=O)N1)C(=O)N[C@@H](CCCNC(=N)N)C(=O)N1CCC[C@H]1C(=O)NNC(N)=O [goserelin-acetate]
Response line: 1.03

Prompt line: Try this compound too: `CNCC[C@H](Oc1cccc2ccccc12)c1cccs1`
Response line: -0.71

Prompt line: Try this compound too: CC(C)Cc1ccc([C@@H](C)C(=O)NCCO)cc1 (racemic)
Response line: -2.13

Prompt line: Try this compound too: `C/C(=N\Nc1nnc2c(n1)[nH]c1c(C)cccc12)c1ccccn1`
Response line: -0.485

Prompt line: Try this compound too: CC(C)(S)C(N)C(=O)O (stereo in doubt) [penicillamine-(racemic)]
Response line: -1.45

Prompt line: Try this compound too: `CN(CC(=O)O)C(=N)N`
Response line: 1.25

Prompt line: Try this compound too: `CCc1nn(CCCN2CCN(c3cccc(Cl)c3)CC2)c(=O)n1CCOc1ccccc1`
Response line: 0.31

Prompt line: Try this compound too: `NC(=O)c1nc(Nc2ccccc2)sc1NC(=O)C1CCCCC1`
Response line: 3.22

Prompt line: Try this compound too: CCCCCCCCCCC(O)C1C=CC2C(=O)N(c3ccccc3)C(=O)C2N1Nc1ccc([N+](=O)[O-])cc1 (configuration not stated)
Response line: 0.89

Prompt line: Try this compound too: `COc1cccc(OC)c1OCCNC[C@H]1COc2ccccc2O1`
Response line: 0.6

----------
test system: Vero E6 infected with SARS-CoV-2; experiment: morphology score (similarity to uninfected cells); higher = more like uninfected cells; conditions: 24 h
MEASURED_QUANTITY: morphology score
Lab note: jot the number down without any unit.

Prompt line: Look at this molecule and give its reported morphology score. O=C(O)c1cc(O)c2ccc(Cl)cc2n1 [7-chlorokynurenic-acid] (10 µM)
Response line: 0.0315

Prompt line: Try this molecule too: CC(C)(O)[C@@H]1[C@H]2OC(=O)[C@@H]1[C@]1(O)C[C@H]3O[C@]34C(=O)O[C@H]2[C@]14C [picrotin] (10 µM)
Response line: 0.0343

Prompt line: Try this molecule too: Clc1ccc(-c2nc3sccn3c2/C=N/OCc2ccc(Cl)c(Cl)c2)cc1 (10 µM)
Response line: 0.00562

Prompt line: Try this molecule too: CN1C(=O)C(F)=C[C@]2(C)[C@H]3CC[C@]4(C)[C@@H](C(=O)NCc5nc6cccnc6[nH]5)CC[C@H]4[C@@H]3CC[C@@H]12 (10 µM)
Response line: 0.0239

Prompt line: Try this molecule too: C[C@H](Nc1cc2c(-c3ccc4c(c3)OCO4)noc2cn1)c1ccccc1 (10 µM)
Response line: 0.191

Prompt line: Try this molecule too: Brc1c(NC2=NCCN2)ccc2nccnc12 [brimonidine] (10 µM)
Response line: 0.0346

Prompt line: Try this molecule too: CCCOc1ccc2[nH]cc(C3=CCNCC3)c2n1 (10 µM)
Response line: 0.24

Prompt line: Try this molecule too: COc1ccc(CC2NCCc3cc(OC)c(OC)cc32)cc1OC (stereo unspecified) [tetrahydropapaverine] (10 µM)
Response line: -0.026

Prompt line: Try this molecule too: CC(=O)O[C@]1(C(C)=O)CC[C@H]2[C@@H]3C=C(Cl)C4=CC(=O)CC[C@]4(C)[C@H]3CC[C@@]21C [chlormadinone-acetate] (10 µM)
Response line: 0.106

Prompt line: Try this molecule too: C[C@]12COC(=O)C[C@@H]1CC[C@@H]1[C@@H]2CC[C@@]2(C)[C@H]1CC[C@]2(C)O [Oxandrolone] (10 µM)
Response line: 0.0356

Prompt line: Try this molecule too: CN1[C@@H]2CC[C@H]1C[C@@H](OC1c3ccccc3CCc3ccccc31)C2 [deptropine] (0.833333 µM)
Response line: 0.24

Prompt line: Try this molecule too: C[C@@H](c1ccc2nccn2c1)n1nnc2ncc(-c3cnn(C)c3)nc21 [savolitinib] (10 µM)
Response line: -0.18

Prompt line: Try this molecule too: NS(=O)(=O)Cc1noc2ccccc12 [zonisamide] (10 µM)
Response line: 0.165

Prompt line: Try this molecule too: O=C1C=Cc2cc(Br)ccc2C1=O [bonaphthone] (10 µM)
Response line: -0.0263

Prompt line: Try this molecule too: CCN1CCN(C(=O)Cc2ccc(Nc3ncc(F)c(Nc4ccc(C(=O)Nc5ccccc5Cl)cc4)n3)cc2)CC1 [aurora-a-inhibitor-i] (10 µM)
Response line: -0.072

Prompt line: Try this molecule too: N[C@@H](C(=O)O)c1ccc(C(=O)O)c(O)c1 (racemic) [4-carboxy-3-hydroxyphenylglycine-(RS)] (10 µM)
Response line: 0.126
